B1: DCAF4 (parent)
chain: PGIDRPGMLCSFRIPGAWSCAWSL

# Variants of: B1
# PROCEDURE_DETAILS: protein stability index of a GFP-peptide fusion (GPS, HEK-293T) (PSI 1-6); higher = more stable;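 further: lentivirally expressed fusions sorted by FACS into six bins by GFP to DsRed ratio, PSI derived from sequencing read proportions per bin multiplied by bin number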
# EXPERIMENTAL_CONTEXT: c terminus: a fixed tail appended
Class assignment keyed on protein stability index, ranges low range (below 2), mid range (2 to below 3), high range (3 or more)

[Q] Class for `D4Q` ?
[A] mid range

[Q] Class for `S11P` ?
[A] high range

[Q] Class for `S23I` ?
[A] low range

[Q] Class for `A21G` ?
[A] high range

[Q] Class for `S11F` ?
[A] high range

[Q] Class for `G7N` ?
[A] mid range

[Q] Class for `L24W` ?
[A] high range

[Q] Class for `S19M` ?
[A] mid range

[Q] Class for `P15K` ?
[A] high range

[Q] Class for `W18G` ?
[A] mid range

[Q] Class for `L24N` ?
[A] mid range

[Q] Class for `G7A` ?
[A] mid range

[Q] Class for `R5L` ?
[A] mid range

[Q] Class for `S11Y` ?
[A] high range

[Q] Class for `A21F` ?
[A] mid range

[Q] Class for `D4Y` ?
[A] mid range

[Q] Class for `C20T` ?
[A] mid range

[Q] Class for `R5I` ?
[A] low range

[Q] Class for `I14G` ?
[A] low range

[Q] Class for `L24A` ?
[A] high range
